# Procedure details: Toxicity in albino mouse assessed as lethality
# Test context: in vivo
Quantity measured: LD50 (mg/kg)

- Mol: "NS(=O)(=O)c1ccc(-n2c(SCC(=O)Nc3cccnc3Cl)nc3c(I)cc(I)cc3c2=O)cc1"
  Observed result: 500

* * *

# Target entity: Nuclear factor erythroid 2-related factor 2 (Mus musculus)
# Procedure details: Activation of Nrf2 in mouse Hepa1c1c7 cells assessed as increase in NQO1 activity at 1.25 uM
# Type: cell-based
# Test context: filed as activator
Below is a list of entries, each paired with its recorded Activity value.

- Mol: "NS(=O)(=O)c1ccc(-n2c(SCC(=O)Nc3ccc(Cl)cc3)nc3c(I)cc(I)cc3c2=O)cc1"
  Activity: 1.03
- Mol: "NS(=O)(=O)c1ccc(-n2c(SCC(=O)Nc3ccc(Br)cc3)nc3c(I)cc(I)cc3c2=O)cc1"
  Activity: 0.99
- Mol: "NS(=O)(=O)c1ccc(-n2c(SCC(=O)Nc3ccc(I)cc3)nc3c(I)cc(I)cc3c2=O)cc1"
  Activity: 1.03
- Mol: "NS(=O)(=O)c1ccc(-n2c(SCC(=O)Nc3cc(Cl)c(Cl)cc3Cl)nc3c(I)cc(I)cc3c2=O)cc1"
  Activity: 1.05
- Mol: "NS(=O)(=O)c1ccc(-n2c(SCC(=O)Nc3ccccn3)nc3c(I)cc(I)cc3c2=O)cc1"
  Activity: 0.83

* * *

# Target entity: Nuclear factor erythroid 2-related factor 2 (Mus musculus)
# Procedure details: Activation of Nrf2 in mouse Hepa1c1c7 cells assessed as increase in NQO1 activity at 3.125 uM
# Assay type: cell-based
# Test context: filed as activator
Below is a list of entries, each paired with its recorded Activity value.
Quantity measured: Activity

- Mol: "NS(=O)(=O)c1ccc(-n2c(SCC(=O)Nc3ccncc3)nc3c(I)cc(I)cc3c2=O)cc1"
  Target entity: "Nuclear factor erythroid 2-related factor 2 (Mus musculus)"
  Observed result: 1.06
- Mol: "NS(=O)(=O)c1ccc(-n2c(SCC(=O)Nc3ccc(Cl)cn3)nc3c(I)cc(I)cc3c2=O)cc1"
  Target entity: "Nuclear factor erythroid 2-related factor 2 (Mus musculus)"
  Observed result: 1.09
- Mol: "NS(=O)(=O)c1ccc(-n2c(SCC(=O)Nc3cccnc3Cl)nc3c(I)cc(I)cc3c2=O)cc1"
  Target entity: "Nuclear factor erythroid 2-related factor 2 (Mus musculus)"
  Observed result: 1.09
- Mol: "NS(=O)(=O)c1ccc(-n2c(SCC(=O)Nc3ccc(F)cc3)nc3c(I)cc(I)cc3c2=O)cc1"
  Target entity: "Nuclear factor erythroid 2-related factor 2 (Mus musculus)"
  Observed result: 0.99

* * *

# Target entity: UniProt:Q60795
# Procedure details: Activation of Nrf2 in mouse Hepa1c1c7 cells assessed as increase in NQO1 activity at 15 uM
# Format: cell-based
# Test context: filed as activator

- Mol: "NS(=O)(=O)c1ccc(-n2c(SCC(=O)Nc3cccc(F)c3)nc3c(I)cc(I)cc3c2=O)cc1"
  Activity: 1.31
- Mol: "NS(=O)(=O)c1ccc(-n2c(SCC(=O)Nc3cccnc3)nc3c(I)cc(I)cc3c2=O)cc1"
  Activity: 1.19
- Mol: "NS(=O)(=O)c1ccc(-n2c(SCC(=O)Nc3ccc(Br)cc3Br)nc3c(I)cc(I)cc3c2=O)cc1"
  Activity: 1.13
- Mol: "NS(=O)(=O)c1ccc(-n2c(SCC(=O)Nc3ccccc3F)nc3c(I)cc(I)cc3c2=O)cc1"
  Activity: 1.8
- Mol: "NS(=O)(=O)c1ccc(-n2c(SCC(=O)Nc3c(Cl)cc(Cl)cc3Cl)nc3c(I)cc(I)cc3c2=O)cc1"
  Activity: 1

* * *

Below is a list of entries, each paired with its recorded Activity value.
# Target entity: Nuclear factor erythroid 2-related factor 2 (Mus musculus)
# Procedure details: Activation of Nrf2 in mouse Hepa1c1c7 cells assessed as increase in NQO1 activity at 3.75 uM
# Format: cell-based
# Test context: filed as activator
Quantity measured: Activity

- Mol: "NS(=O)(=O)c1ccc(-n2c(SCC(=O)Nc3c(Cl)cc(Cl)cc3Cl)nc3c(I)cc(I)cc3c2=O)cc1"
  Observed result: 1.02
- Mol: "NS(=O)(=O)c1ccc(-n2c(SCC(=O)Nc3cccnc3)nc3c(I)cc(I)cc3c2=O)cc1"
  Observed result: 1.03
- Mol: "NS(=O)(=O)c1ccc(-n2c(SCC(=O)Nc3ccccc3F)nc3c(I)cc(I)cc3c2=O)cc1"
  Observed result: 1.13
- Mol: "NS(=O)(=O)c1ccc(-n2c(SCC(=O)Nc3cccc(F)c3)nc3c(I)cc(I)cc3c2=O)cc1"
  Observed result: 1.1
- Mol: "NS(=O)(=O)c1ccc(-n2c(SCC(=O)Nc3ccc(Br)cc3Br)nc3c(I)cc(I)cc3c2=O)cc1"
  Observed result: 1.09

* * *

# Target entity: Nuclear factor erythroid 2-related factor 2 (Mus musculus) (UniProt Q60795)
# Procedure details: Activation of Nrf2 in mouse Hepa1c1c7 cells assessed as increase in NQO1 activity at 1.9 uM
# Format: cell-based
# Test context: filed as activator
Quantity measured: Activity

- Mol: "NS(=O)(=O)c1ccc(-n2c(SCC(=O)Nc3cccnc3)nc3c(I)cc(I)cc3c2=O)cc1"
  Quantity measured: "Activity"
  Observed result: 0.99
- Mol: "NS(=O)(=O)c1ccc(-n2c(SCC(=O)Nc3c(Cl)cc(Cl)cc3Cl)nc3c(I)cc(I)cc3c2=O)cc1"
  Quantity measured: "Activity"
  Observed result: 1.04
- Mol: "NS(=O)(=O)c1ccc(-n2c(SCC(=O)Nc3ccccc3F)nc3c(I)cc(I)cc3c2=O)cc1"
  Quantity measured: "Activity"
  Observed result: 1.12
- Mol: "NS(=O)(=O)c1ccc(-n2c(SCC(=O)Nc3ccc(Br)cc3Br)nc3c(I)cc(I)cc3c2=O)cc1"
  Quantity measured: "Activity"
  Observed result: 1.02
- Mol: "NS(=O)(=O)c1ccc(-n2c(SCC(=O)Nc3cccc(F)c3)nc3c(I)cc(I)cc3c2=O)cc1"
  Quantity measured: "Activity"
  Observed result: 1.06

* * *

# Target entity: Nuclear factor erythroid 2-related factor 2 (Mus musculus) (UniProt Q60795)
# Procedure details: Activation of Nrf2 in mouse Hepa1c1c7 cells assessed as increase in NQO1 activity at 40 uM
# Format: cell-based
# Test context: filed as activator

- Mol: "NS(=O)(=O)c1ccc(-n2c(SCC(=O)Nc3ccc(Br)cc3)nc3c(I)cc(I)cc3c2=O)cc1"
  Activity: 1.93
- Mol: "NS(=O)(=O)c1ccc(-n2c(SCC(=O)Nc3ccc(Cl)cc3)nc3c(I)cc(I)cc3c2=O)cc1"
  Activity: 1.26
- Mol: "NS(=O)(=O)c1ccc(-n2c(SCC(=O)Nc3cc(Cl)c(Cl)cc3Cl)nc3c(I)cc(I)cc3c2=O)cc1"
  Activity: 1.3
- Mol: "NS(=O)(=O)c1ccc(-n2c(SCC(=O)Nc3ccc(I)cc3)nc3c(I)cc(I)cc3c2=O)cc1"
  Activity: 1.12

* * *

# Target entity: UniProt Q60795
# Procedure details: Activation of Nrf2 in mouse Hepa1c1c7 cells assessed as increase in NQO1 activity at 0.5 uM
# Format: cell-based
# Test context: filed as activator

- Mol: "NS(=O)(=O)c1ccc(-n2c(SCC(=O)Nc3ccccc3F)nc3c(I)cc(I)cc3c2=O)cc1"
  Activity: 1.06
- Mol: "NS(=O)(=O)c1ccc(-n2c(SCC(=O)Nc3cccnc3)nc3c(I)cc(I)cc3c2=O)cc1"
  Activity: 0.99
- Mol: "NS(=O)(=O)c1ccc(-n2c(SCC(=O)Nc3cccc(F)c3)nc3c(I)cc(I)cc3c2=O)cc1"
  Activity: 1.04
- Mol: "NS(=O)(=O)c1ccc(-n2c(SCC(=O)Nc3ccc(Br)cc3Br)nc3c(I)cc(I)cc3c2=O)cc1"
  Activity: 1
- Mol: "NS(=O)(=O)c1ccc(-n2c(SCC(=O)Nc3c(Cl)cc(Cl)cc3Cl)nc3c(I)cc(I)cc3c2=O)cc1"
  Activity: 1.02

* * *

# Target entity: UniProtKB Q60795
# Sequence (whole entry): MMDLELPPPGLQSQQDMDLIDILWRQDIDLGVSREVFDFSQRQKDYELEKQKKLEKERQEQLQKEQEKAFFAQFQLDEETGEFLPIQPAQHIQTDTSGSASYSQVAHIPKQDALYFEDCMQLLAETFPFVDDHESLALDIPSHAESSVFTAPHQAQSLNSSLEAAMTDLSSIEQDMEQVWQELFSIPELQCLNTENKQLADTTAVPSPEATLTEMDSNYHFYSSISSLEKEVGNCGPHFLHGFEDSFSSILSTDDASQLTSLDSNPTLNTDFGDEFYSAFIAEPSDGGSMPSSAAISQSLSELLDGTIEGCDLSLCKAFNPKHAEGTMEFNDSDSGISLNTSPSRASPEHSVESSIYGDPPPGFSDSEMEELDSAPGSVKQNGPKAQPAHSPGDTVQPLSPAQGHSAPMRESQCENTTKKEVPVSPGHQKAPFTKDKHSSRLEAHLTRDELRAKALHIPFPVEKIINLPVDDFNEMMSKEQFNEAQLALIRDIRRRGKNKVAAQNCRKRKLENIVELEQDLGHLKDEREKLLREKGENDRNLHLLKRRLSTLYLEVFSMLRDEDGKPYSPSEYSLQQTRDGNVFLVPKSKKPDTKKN
# Procedure details: Activation of Nrf2 in mouse Hepa1c1c7 cells assessed as increase in NQO1 activity at 0.2 uM
# Format: cell-based
# Test context: filed as activator
Below is a list of entries, each paired with its recorded Activity value.
Quantity measured: Activity

- Mol: "NS(=O)(=O)c1ccc(-n2c(SCC(=O)Nc3c(Cl)cc(Cl)cc3Cl)nc3c(I)cc(I)cc3c2=O)cc1"
  Observed result: 1
- Mol: "NS(=O)(=O)c1ccc(-n2c(SCC(=O)Nc3cccnc3)nc3c(I)cc(I)cc3c2=O)cc1"
  Observed result: 1
- Mol: "NS(=O)(=O)c1ccc(-n2c(SCC(=O)Nc3cccc(F)c3)nc3c(I)cc(I)cc3c2=O)cc1"
  Observed result: 1.01
- Mol: "NS(=O)(=O)c1ccc(-n2c(SCC(=O)Nc3ccc(Br)cc3Br)nc3c(I)cc(I)cc3c2=O)cc1"
  Observed result: 1.01
- Mol: "NS(=O)(=O)c1ccc(-n2c(SCC(=O)Nc3ccccc3F)nc3c(I)cc(I)cc3c2=O)cc1"
  Observed result: 1.05
